Consider the following molecules; for each one, report its EC50.
# Assayed system: KCNQ2/3 channel (KCNQ2/3 heteromers) (Homo sapiens, UniProt O43525+O43526)
# Sequence (O43525 whole entry): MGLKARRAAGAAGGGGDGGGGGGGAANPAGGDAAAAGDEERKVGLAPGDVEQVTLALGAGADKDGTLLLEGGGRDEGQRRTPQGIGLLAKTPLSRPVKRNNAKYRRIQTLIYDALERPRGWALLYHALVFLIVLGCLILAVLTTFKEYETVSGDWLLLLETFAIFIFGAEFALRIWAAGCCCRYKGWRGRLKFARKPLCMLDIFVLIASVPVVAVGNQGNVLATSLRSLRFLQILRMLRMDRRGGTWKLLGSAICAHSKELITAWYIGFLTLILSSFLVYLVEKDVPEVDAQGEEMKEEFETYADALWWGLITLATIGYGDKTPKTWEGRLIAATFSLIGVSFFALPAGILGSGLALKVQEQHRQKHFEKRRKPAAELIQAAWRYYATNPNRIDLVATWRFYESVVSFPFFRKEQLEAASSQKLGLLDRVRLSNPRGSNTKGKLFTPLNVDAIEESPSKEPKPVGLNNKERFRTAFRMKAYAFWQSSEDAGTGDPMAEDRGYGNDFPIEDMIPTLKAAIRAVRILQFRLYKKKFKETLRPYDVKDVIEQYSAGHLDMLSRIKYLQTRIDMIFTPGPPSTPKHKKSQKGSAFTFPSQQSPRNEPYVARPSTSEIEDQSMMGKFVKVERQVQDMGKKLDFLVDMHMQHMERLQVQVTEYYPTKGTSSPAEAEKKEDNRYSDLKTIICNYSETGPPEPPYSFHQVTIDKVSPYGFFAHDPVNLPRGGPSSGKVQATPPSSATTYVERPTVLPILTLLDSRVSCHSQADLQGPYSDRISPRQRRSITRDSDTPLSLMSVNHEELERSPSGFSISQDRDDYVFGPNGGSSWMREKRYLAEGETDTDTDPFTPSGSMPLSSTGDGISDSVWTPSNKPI
# Sequence (O43526 whole entry): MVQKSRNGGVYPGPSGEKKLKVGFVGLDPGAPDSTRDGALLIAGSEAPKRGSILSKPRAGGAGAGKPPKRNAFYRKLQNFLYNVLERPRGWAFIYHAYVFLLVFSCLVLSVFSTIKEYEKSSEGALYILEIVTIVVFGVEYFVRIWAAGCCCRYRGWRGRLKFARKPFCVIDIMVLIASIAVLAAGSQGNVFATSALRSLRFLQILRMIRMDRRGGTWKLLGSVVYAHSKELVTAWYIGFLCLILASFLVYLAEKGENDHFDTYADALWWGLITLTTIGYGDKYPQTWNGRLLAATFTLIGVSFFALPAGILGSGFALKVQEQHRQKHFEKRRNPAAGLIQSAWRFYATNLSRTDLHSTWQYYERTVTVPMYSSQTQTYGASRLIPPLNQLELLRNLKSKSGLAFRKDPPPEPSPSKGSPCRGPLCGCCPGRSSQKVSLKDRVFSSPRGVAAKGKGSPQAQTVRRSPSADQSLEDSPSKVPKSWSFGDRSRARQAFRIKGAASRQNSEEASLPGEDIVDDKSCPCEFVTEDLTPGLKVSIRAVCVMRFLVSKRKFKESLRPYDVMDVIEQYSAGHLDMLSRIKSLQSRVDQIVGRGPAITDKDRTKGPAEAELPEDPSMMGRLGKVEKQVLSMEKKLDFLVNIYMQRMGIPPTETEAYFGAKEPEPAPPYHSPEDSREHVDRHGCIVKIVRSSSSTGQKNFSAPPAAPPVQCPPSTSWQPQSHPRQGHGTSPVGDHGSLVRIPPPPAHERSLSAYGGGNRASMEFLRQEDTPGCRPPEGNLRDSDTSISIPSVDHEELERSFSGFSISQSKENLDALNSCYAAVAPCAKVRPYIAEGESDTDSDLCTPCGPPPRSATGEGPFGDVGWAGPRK
# Assay summary: whole-cell patch clamp, V0.[…] shift, Hill fit
Give bare numbers, in µM.

For every listed record, write down its EC50.
1. CCOC(=O)Nc1ccc(NCc2ccc(F)cc2)cc1N [retigabine]
2. Oc1cc(Cl)ccc1Oc1ccc(Cl)cc1Cl [triclosan]

Reply:
1. 3.6
2. 32

---

# Assayed system: KCNQ3 (homomer; KCNQ3T = KCNQ3-A315T) (Homo sapiens, UniProt O43525, A315T/S209A)
# Sequence (O43525 whole entry S209A/A315T): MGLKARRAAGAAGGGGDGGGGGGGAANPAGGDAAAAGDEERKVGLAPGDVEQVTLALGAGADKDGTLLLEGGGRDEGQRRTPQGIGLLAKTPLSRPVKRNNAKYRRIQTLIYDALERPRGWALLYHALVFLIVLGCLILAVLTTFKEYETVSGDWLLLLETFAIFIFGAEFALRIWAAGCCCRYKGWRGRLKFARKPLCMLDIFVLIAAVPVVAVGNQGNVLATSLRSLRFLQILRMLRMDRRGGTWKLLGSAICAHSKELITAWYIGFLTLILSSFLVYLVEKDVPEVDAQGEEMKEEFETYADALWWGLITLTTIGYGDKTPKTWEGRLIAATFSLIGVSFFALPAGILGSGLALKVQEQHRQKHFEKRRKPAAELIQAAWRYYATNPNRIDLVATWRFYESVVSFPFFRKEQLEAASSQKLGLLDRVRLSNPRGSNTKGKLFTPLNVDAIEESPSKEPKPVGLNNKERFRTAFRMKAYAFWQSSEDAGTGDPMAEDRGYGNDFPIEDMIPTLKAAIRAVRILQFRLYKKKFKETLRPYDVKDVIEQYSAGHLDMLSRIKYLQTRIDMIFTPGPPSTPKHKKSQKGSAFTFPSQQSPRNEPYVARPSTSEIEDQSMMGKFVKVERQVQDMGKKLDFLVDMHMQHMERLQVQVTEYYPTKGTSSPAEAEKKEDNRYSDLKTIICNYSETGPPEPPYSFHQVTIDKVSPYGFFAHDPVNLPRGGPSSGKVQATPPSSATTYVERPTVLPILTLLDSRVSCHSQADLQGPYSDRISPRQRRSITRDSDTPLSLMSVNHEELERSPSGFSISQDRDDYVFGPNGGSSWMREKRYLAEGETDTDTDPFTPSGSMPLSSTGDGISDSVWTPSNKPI
# Assay summary: whole-cell patch clamp, V0.[…] shift, Hill fit
Metric: pEC50
Answers are plain numbers, as −log10 of the molar value.

The reported value for Oc1cc(Cl)ccc1Oc1ccc(Cl)cc1Cl [triclosan] in terms of pEC50 is 4.34

All figures here come from paper doi:10.1101/2021.09.30.462664v1.
